system: OCI-My-2; assay: In vitro cell proliferation assay (WST.1, Table 5); type: cell-based; settings: Homo sapiens, 72 h; OCI-My-2, day 3
pIC50: −log10 of the molar value.
Readout kind: pIC50

Below: 2 molecules and their reported pIC50.
> print(dat)
                                   molecule  endpoint.value
1  [N-]=[N+]=Nc1c(F)c(=O)[nH]c(=O)n1[C@@H]1O[C@H](CO)[C@@H](O)[C@H]1O            6.22
2  CCc1c(F)c(=O)[nH]c(=O)n1C1OC(CO)C(O)C1O (stereo not shown)            5.85

1: CCOC(=O)c1cc(=O)[nH]c(=O)n1[C@@H]1O[C@H](CO)C(O)C1O (stereo partly shown)
2: CC(=O)OCC1OC(n2c(I)cc(=O)[nH]c2=O)C(O)C1O (stereo not shown)
3: O=Cc1c(F)c(=O)[nH]c(=O)n1C1OC(CO)C(O)C1O (stereo not shown)
Order the entries by their reported pIC50, beginning at the minimum. Labels, ranked as asked.
1, 2, 3
(1: 4.37, 2: 5.89, 3: 6.40)
